# EXPERIMENT DESCRIPTION: Hemolytic activity in sheep red blood cells measured after 1 hr incubation
# Type: toxicity, cell-based, Ovis aries, Erythrocyte
Each item that follows carries a reported HC50 at 1 h.

# count of solved cases: 2
INPUT: Provide HC50 at 1 h value for the following compound: `CCCCCCCC[N+](C)(C)CCCCOc1ccc(OCCCC[N+](C)(C)CCCCCCCC)c(OCCCC[N+](C)(C)CCCCCCCC)c1.[Br-].[Br-].[Br-]`
OUTPUT: > 1280 µg/mL

INPUT: Provide HC50 at 1 h value for the following compound: `C[N+](C)(CCCCCOc1cc(OCCCCC[N+](C)(C)CCCCOc2ccccc2)cc(OCCCCC[N+](C)(C)CCCCOc2ccccc2)c1)CCCCOc1ccccc1.[Br-].[Br-].[Br-]`
OUTPUT: > 1280 µg/mL

Now look at this one.
INPUT: Provide HC50 at 1 h value for the following compound: `C[N+](C)(CCCCCOc1cc(OCCCCC[N+](C)(C)CCCOc2ccccc2)cc(OCCCCC[N+](C)(C)CCCOc2ccccc2)c1)CCCOc1ccccc1.[Br-].[Br-].[Br-]`
OUTPUT: > 1280 µg/mL
